Reference source for all entries: patent US9006487B2

system: cos-7 cells; experiment: DNA transfection: luciferase expression relative to Lipofectamine 2000; format: cell-based; settings: lipid/DNA 25 w/w; 300 ng Luciferase DNA per well; luciferase assay after 48 hours
Parameter: Luciferase expression as a percentage of that achieved using Lipofectamine 2000. Scope: all listed entries.
Please respond with the number in % and leave the unit unwritten.

As a guide, the following entries are already answered.
> print(dat)
                              line.notation  unit.abbreviation  assay.value
1  CCCCCCCCCCOC(=O)CCN(CCC(=O)OCCCCCCCCCC)CCN1CCCC1                  %          0.1
2  CCCCCCCCCCOC(=O)CCN(CCN(CCC(=O)OCCCCCCCCCC)C(C)C)C(C)C                  %          0.1

Field: next molecule
Request: # Luciferase expression as a percentage of that achieved using Lipofectamine 2000 lookup, item CCCCCCCCCCCCCCOC(=O)CCN(CCCO)CCC(=O)OCCCCCCCCCCCCCC
Response: 0.1
